Values compiled from PubChem BioAssay AID1347426.

- protocol-text: Novel Modifiers of Survival Motor Neuron (SMN) Protein: Gene Identification via Genome-wide siRNA Screen;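 further: luminescence tracks full-length SMN protein made from the SMN2 reporter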
- conditions-used: HEK293T SMN2-luciferase reporter, siRNA knockdown, 72 h; actives lie on both sides
The campaign covered roughly 31,000 sequences. About 1,400 (4.5%) were called active.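 How the source made its calls: active means median seed-adjusted z-score above 1 or below -1; inactive means the rest.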 Only a selection was taken, and actives are over-represented in it overall.
Pick from active, inactive when you respond.

chain-sequence | classification
CAUCAUUUCAGACAAGUUUTT against DDO | inactive

// query Which result was noted for this sequence in the test: ACAUGAUCUUGGACCUGGATT against CSNK2B
// result active

// query Entry GCAUGACCCUCGUCACAUATT against THBS1 : call = ?
// result inactive

* * *

- protocol-text: Novel Modifiers of Survival Motor Neuron (SMN) Protein: Gene Identification via Genome-wide siRNA Screen;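 further: luminescence tracks full-length SMN protein made from the SMN2 reporter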
- conditions-used: HEK293T SMN2-luciferase reporter, siRNA knockdown, 72 h; actives lie on both sides
Among all 31,000 sequences or so, about 1,400 (4.5%) were called active. The sample as a whole holds a higher share of actives than the screen did.
outcome-measure: median seed-adjusted z-score
Answers are plain numbers.

chain-sequence | median seed-adjusted z-score
UUACAUUGAUUACACUGGATT against RBM24 | 0.0471

Below are some sequences; for each one, tell me its median seed-adjusted z-score.
1. CCAAUACAGUGGACAGUUATT against EMR1
2. GGUAUUACUUUGCAAUCGATT against CACNA2D1

// result
0.255
-0.541

* * *

- protocol-text: Novel Modifiers of Survival Motor Neuron (SMN) Protein: Gene Identification via Genome-wide siRNA Screen;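 further: luminescence tracks full-length SMN protein made from the SMN2 reporter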
- conditions-used: HEK293T SMN2-luciferase reporter, siRNA knockdown, 72 h; actives lie on both sides
About 1,400 (4.5%) of roughly 31,000 sequences were called active. The sample as a whole holds a higher share of actives than the screen did.
outcome-measure: median seed-adjusted z-score
Answers are plain numbers.

chain-sequence | observed-value
AGAUAAGAAUCGCAUGACATT against ARHGAP9 | 0
GGACAACUAUGGUAAGAAATT against TCF7L1 | -0.251

// query Given the entry GAAUCUCACAAUUAUGUAUTT against NCK2 , report its measured median seed-adjusted z-score.
// result -0.397

* * *

- protocol-text: Novel Modifiers of Survival Motor Neuron (SMN) Protein: Gene Identification via Genome-wide siRNA Screen;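 further: luminescence tracks full-length SMN protein made from the SMN2 reporter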
- conditions-used: HEK293T SMN2-luciferase reporter, siRNA knockdown, 72 h; actives lie on both sides
The whole screen tested about 31,000 sequences, of which about 1,400 (4.5%) were called active.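 How the source made its calls: active means median seed-adjusted z-score above 1 or below -1; inactive means the rest.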 This is one part of a sample in which actives are shown more often than they occur.
Respond only with the outcome that fits, drawn from active, inactive

Solved entries (count: 5):
chain-sequence | classification
GAGUUAUGCAAGACAGUAUTT against MYSM1 | inactive
GGAGAUCUGCUACUAAACATT against PSMD6 | active
GGACUUGCUGGAAAGCACATT against NCALD | inactive
GCAGAGCAAUGGGAGAGAATT against EPHB4 | inactive
GCAUCUGCUGUAUCGAUGATT against MCM4 | inactive

Now take the following sequence into account.
// query Answer briefly: the call reported for GCCCACUGACCAUACCUCATT against NAT6 in this assay.
// result inactive

* * *

- protocol-text: Novel Modifiers of Survival Motor Neuron (SMN) Protein: Gene Identification via Genome-wide siRNA Screen;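 further: luminescence tracks full-length SMN protein made from the SMN2 reporter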
- conditions-used: HEK293T SMN2-luciferase reporter, siRNA knockdown, 72 h; actives lie on both sides
About 1,400 (4.5%) of roughly 31,000 sequences were called active. Only a selection was taken, and actives are over-represented in it overall.
outcome-measure: median seed-adjusted z-score
Numbers only.

Example entries and their recorded answers appear below.
chain-sequence | median seed-adjusted z-score
UGCUGGUGUUUAAACCCAUTT against C5AR1 | 0.366
GCCGUGACCUACUUCAUCATT against SLC29A4 | 0.0192
GCCCUAAACCUGCCGGAAATT against EVX1 | 1
GUAAGGCAAAGACUCCCUATT against ZNF673 | 0.419
GGAUUGAAGAUACUACAAATT against THOC1 | -3.04

I would be grateful if you could provide median seed-adjusted z-score for each of the following entries.
1. CCAUGUUACCAUACAAUAATT against MXD1
2. GAUGCUAUGGAAUACCAUATT against METTL4
3. GAAUGUCAUCCGUAUUUCATT against AKR1C3
4. CCAACUCAUUGAUAGGGAUTT against PRPH2
5. GCGAAUCCAGGAUCAAGAATT against TRIP4

// result
-0.763
0.244
-0.00538
0.0931
-0.0385

Count: 2. Required value per item: median seed-adjusted z-score.
1. GGAUCAAGGCUAUGUGGAUTT against CYB5R1
2. GCAACCCACCAAUAACUAATT against ADAM29

// result
0
0.904

Below are some sequences; for each one, tell me its median seed-adjusted z-score.
1. GUAUGCGACUGGGAUCUUATT against HP
2. CCCAAGACGUUCACCGUGATT against NF2
3. GGGCGAUUCCUGUCUAAGATT against PUM1
4. CAUUCAUCUCAAUAAUUGATT against IL5RA

// result
1. 0
2. -0.543
3. 0.109
4. -0.357

* * *

- protocol-text: Novel Modifiers of Survival Motor Neuron (SMN) Protein: Gene Identification via Genome-wide siRNA Screen;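 further: luminescence tracks full-length SMN protein made from the SMN2 reporter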
- conditions-used: HEK293T SMN2-luciferase reporter, siRNA knockdown, 72 h; actives lie on both sides
The campaign covered roughly 31,000 sequences. About 1,400 (4.5%) were called active. The full list was thinned out, with actives kept by preference.
outcome-measure: median seed-adjusted z-score
Answers are plain numbers.

Study these solved cases before continuing.
chain-sequence | median seed-adjusted z-score
GCCUUCGAGUUCCUUGUUUTT against COX6B2 | -0.544
GAUUAGAUCUAAACAAUCUTT against TTRAP | -0.33

Working through the 7 sequences below one at a time, give median seed-adjusted z-score for each.
1. CCAACAUACUAGUCAAUAATT against EFTUD1
2. AGCCGUGGAUGGUAGAUCUTT against ZNF2
3. CGUCUUCCUUGUGCGCCUATT against COL20A1
4. CAAAGACCCUUUAUUCGAATT against BTBD10
5. CACCUGCGAGUGUUCCAAUTT against CSTB
6. UGAGUAUGCCUACCUCAAATT against HNF4A
7. GCAAACCGGUUAAUCAAGATT against GGA2

// result
-1.39
-0.119
-0.0033
0.695
1.08
-0.0274
-0.142

* * *

- protocol-text: Novel Modifiers of Survival Motor Neuron (SMN) Protein: Gene Identification via Genome-wide siRNA Screen;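 further: luminescence tracks full-length SMN protein made from the SMN2 reporter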
- conditions-used: HEK293T SMN2-luciferase reporter, siRNA knockdown, 72 h; actives lie on both sides
The whole screen tested about 31,000 sequences, of which about 1,400 (4.5%) were called active.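 The calls were made as follows: active = median seed-adjusted z-score above 1 or below -1; inactive = the rest.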 The full list was thinned out, with actives kept by preference.
Returns: one label drawn from active, inactive

Examples from the recorded data:
chain-sequence | classification
AAUUCUACGAGUCCAAGUATT against GPS1 | inactive
CCGCAUAGCUCAUAGGAUATT against SMARCA2 | inactive
CCAUCGUUCUGGGAAUUCUTT against CD6 | inactive
CAGUCCUACAGGUUCAUCATT against PIP5K1C | inactive

// query # outcome recorded in this test, key = GCCUCUCAGAGAACUACGATT against LRRC33
// result inactive

// query Please indicate how the test categorized CUCCGUAUCAUAGAUGUAATT against PCDHB3 .
// result inactive

// query Short answer needed: outcome of this test for GGACUCACCAAAUAGAUCATT against ZNF818 ?
// result inactive

// query Please indicate how the test categorized GCCUGAACCUCAUCCUUAUTT against ENPP1 .
// result inactive

// query Which outcome did this test record for the sequence GAUCCGUUGGUGCAUGAAATT against ABHD2 ?
// result active

* * *

- protocol-text: Novel Modifiers of Survival Motor Neuron (SMN) Protein: Gene Identification via Genome-wide siRNA Screen;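 further: luminescence tracks full-length SMN protein made from the SMN2 reporter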
- conditions-used: HEK293T SMN2-luciferase reporter, siRNA knockdown, 72 h; actives lie on both sides
Out of some 31,000 sequences screened, about 1,400 (4.5%) were called active. This excerpt belongs to a sample that is enriched for actives.
Give measured median seed-adjusted z-score for each item. Keep answers brief.
Give bare numbers.

Worked cases, median seed-adjusted z-score given:
chain-sequence | observed-value
AUAGUUGACUAUUCUGAAATT against CCL18 | 0.169
GCAGGCUAAUCGCAAUGAATT against ANXA13 | -0.467

Now consider a different sequence.
// query Need median seed-adjusted z-score of CCAUUAUGAUCGUAAGGCATT against GCNT4 , thanks.
// result -0.0629

* * *

- protocol-text: Novel Modifiers of Survival Motor Neuron (SMN) Protein: Gene Identification via Genome-wide siRNA Screen;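 further: luminescence tracks full-length SMN protein made from the SMN2 reporter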
- conditions-used: HEK293T SMN2-luciferase reporter, siRNA knockdown, 72 h; actives lie on both sides
Among all 31,000 sequences or so, about 1,400 (4.5%) were called active. This is one part of a sample in which actives are shown more often than they occur.
outcome-measure: median seed-adjusted z-score
One number for each entry.

Example results:
chain-sequence | median seed-adjusted z-score
AAGGAGCAGUGGAUACUGATT against MST1 | -1.47
GCACCAGCCUUAACCCUCATT against RAB1B | 1.55
GCACUAUAUGAAUACGCAATT against AUP1 | 0.305
CAAACGUGGACUGUCCAAATT against CA4 | 0.0549
GGAUCUCAUGAGGCGAAUATT against EIF5 | 0.362
ACAGCGACCUUGCAAAGAATT against ZNF496 | -0.971
CAACUGCUAGCUGAACGAATT against ITIH2 | 0.262
GGUAAUAAAUGGGUUGGAATT against PTGR2 | 0.14
CCUUACGAAUCAUAAGAUATT against ZNF708 | 0.0562
GGCUGUAUGAGCACCGUUATT against TGIF1 | 0.303

Required: median seed-adjusted z-score, one value per sequence below.
1. CCCAGUUUCUAGUCUGCUATT against SHKBP1
2. AGUGUCUACUGUGAGAAUATT against TRAF4
3. AGUUCAUGCAAGAUCCAAUTT against BAT1
4. GAACUUUGUUACUAUCGAATT against PCDH9
5. GAAGAGCCGUAUGAUCGAATT against ZNF432

// result
1. 0.345
2. -1.16
3. -1.49
4. 0.165
5. -0.124

Okay, here is my list. What is median seed-adjusted z-score for each of these?
1. GGAGCGAGCUGGUGCAUAATT against SH3BP5
2. GGCUCAACGUAUAAGCGAATT against PIP5K1B
3. GCAUGCAGAUGUUCGGCAATT against CACNA1F
4. CAUCUUAUCUACAUCUUAUTT against KCNK18
5. CUGGAAGUGUUAUUCCUAATT against FOXD4L1

// result
1: -0.707; 2: 0.0917; 3: 0.22; 4: 0.115; 5: 0.271

Dear reader, for each entry below, please note its median seed-adjusted z-score.
1. GCAGAGAUUUCCAAGAAAATT against GPR32
2. CCCUAUCAAUUUCUAUGGATT against MPP4
3. GGUGUUUGAUUGUGAGAAUTT against UBE2G1
4. CCUGAAAUCAUAGAGUUAATT against KCNMA1
5. CGUUAUGCCUGGUCUCCUATT against SPPL3
6. CAUUUGGUCUAGACAGUUUTT against TDP1
7. GCUCUAUGUCUACAUCAAUTT against DAXX
8. GCCCUGACAUUUCCCGAAATT against FOXJ2

// result
-1.2
0.13
0.174
0
0.652
-0.352
0.349
-0.627
